Target Under Test: β3-adrenoceptor (Homo sapiens)
Construct: which endogenously express β1- and β3-adrenoceptors; endogenous in cells; host or cells: SK-N-MC human neuroblastoma cells
Sequence (P13945 whole entry): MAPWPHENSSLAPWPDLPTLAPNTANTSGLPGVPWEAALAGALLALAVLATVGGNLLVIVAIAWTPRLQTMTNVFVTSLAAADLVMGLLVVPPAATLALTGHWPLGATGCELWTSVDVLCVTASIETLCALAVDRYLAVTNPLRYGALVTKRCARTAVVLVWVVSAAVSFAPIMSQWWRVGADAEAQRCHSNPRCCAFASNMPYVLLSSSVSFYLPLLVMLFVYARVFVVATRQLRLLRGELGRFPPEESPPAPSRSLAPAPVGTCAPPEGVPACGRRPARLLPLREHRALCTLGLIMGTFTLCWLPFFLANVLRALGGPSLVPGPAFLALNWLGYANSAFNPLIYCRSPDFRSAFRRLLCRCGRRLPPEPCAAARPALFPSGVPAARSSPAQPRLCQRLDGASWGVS
Assay Comment: Measurement of cAMP production in SK-N-MC cells (Assay 1 - Method A)
Format: cell-based
Measurement Context: 1 μM CGP20712A, read-out: Beta-3 EC50
Description: Measurement of cAMP Production in SK-N-MC Cells (Assay 1—Method A) Human neuroblastoma cell line, SK-N-MC, which endogenously express β1- and β3-adrenoceptors was utilized. In the presence of 1 μM of […] selective antagonist, CGP20712A, the effects of the compounds on cAMP levels were examined. […] Total cAMP in the well was measured by cAMP ELISA kit (Tropix, Bedford, Mass.). Effect of the compound on the cAMP level was determined at 6 different concentrations from 0.1 nM to 10 μM. […]
Structures can show the parent of a compound that is named as a salt.
Measurement Label: EC50 (nM)
Number in nM, nothing else.

// query Determine its reported EC50: CN(c1ccc(C(=O)O)cc1)c1ccc2c(c1)CC[C@H](CNC[C@H](O)COc1ccccc1)O2 [Example 2, hydrochloride]
// result 14

// query Output measured EC50 for this item: O=C(O)c1ccccc1Oc1ccc2c(c1)CC[C@H](CNC[C@H](O)COc1ccccc1-c1ccccc1)O2
// result 230

// query Give the value of EC50 reported for the following: O=C(O)c1ccccc1Oc1ccc2c(c1)CC[C@H](CNC[C@H](O)COc1ccccc1)O2
// result 26

// query Identify EC50 associated with the compound N#Cc1ccc(Nc2ccc3c(c2)CC[C@H](CNC[C@H](O)COc2ccccc2)O3)cc1
// result 160

// query Please report the measured EC50 for COc1cc(C(=O)O)ccc1Oc1ccc2c(c1)CC[C@H](CNC[C@H](O)COc1ccccc1)O2
// result 270
